- Tested on: Madin-Darby canine kidney (MDCK) cells
PROPERTY_MEASURED: CC50

Challenge: Report CC50 for O=C1c2c(O)c(=O)ccn2N([C@@H]2c3ccccc3SCc3c2ccc(F)c3F)[C@@H]2COCCN12 [BXA, baloxavir acid, reference compound] please.
Response given: > 20 nM

* * *

PROPERTY_MEASURED: melting point

Observe how each entry below is paired with its result.
[
  {
    "COMPOUND": "CCC1CCC2(CC1)SC(C)C(=O)N2NC(=O)c1ccc(S(N)(=O)=O)cc1OC (centres unmarked)",
    "melting point": "270 to 272 °C"
  },
  {
    "COMPOUND": "COc1cc(S(N)(=O)=O)ccc1C(=O)NN1C(=O)C(C)SC12CCC(C#N)(c1ccccc1)CC2 (centres unmarked)",
    "melting point": "265 to 270 °C"
  },
  {
    "COMPOUND": "COc1cc(S(N)(=O)=O)ccc1C(=O)NN1C(=O)C(C)SC12CCCC(C)C2 (centres unmarked)",
    "melting point": "261 to 264 °C"
  }
]

Challenge: Report melting point for COc1cc(S(N)(=O)=O)ccc1C(=O)NN1C(=O)C(C)SC12CCC(C)CC2 (centres unmarked) please.
Response given: 258 to 261 °C

Challenge: Report melting point for COc1cc(S(N)(=O)=O)ccc1C(=O)NN1C(=O)C(C)SC12CCC(c1ccccc1)CC2 (centres unmarked) please.
Response given: 290 to 292 °C
